All figures here come from patent US20090253712A1.

assay.remarks: Solubility tests of active agent in solvent systems
Assay type: physicochemical
assay.conditions: 2.0% polysorbate 80 + 25% ethanol + ammonium acetate pH 3.1, pH 3.1, aqueous with cosolvent or surfactant or cyclodextrin, thermodynamic from solid, Table 2: 2.0% polysorbate 80 + 25% ethanol + ammonium acetate pH 3.1; read-out: Solubilized miconazole ± S.D.
endpoint.name: solubility (mg/mL)
Answers are plain numbers, in mg/mL.

QUERY: Indicate the recorded solubility value for this compound: Clc1ccc(COC(Cn2ccnc2)c2ccc(Cl)cc2Cl)c(Cl)c1 (stereo not shown) [miconazole]
RESULT: 37.9

---

assay.remarks: Solubility tests of active agent in solvent systems
Type: physicochemical
assay.conditions: 0.1% polysorbate 80 + 10% ethanol + ammonium acetate pH 3.1, pH 3.1, aqueous with cosolvent or surfactant or cyclodextrin, thermodynamic from solid, Table 3: 0.1% polysorbate 80 + 10% ethanol + ammonium acetate pH 3.1; read-out: Solubilized miconazole ± S.D.
endpoint.name: solubility (mg/mL)
Give bare numbers, in mg/mL.

QUERY: Indicate the recorded solubility value for this compound: Clc1ccc(COC(Cn2ccnc2)c2ccc(Cl)cc2Cl)c(Cl)c1 (stereo not shown)
RESULT: 4.52
